Tgt: BRM (Homo sapiens)
Sequence (P51531 whole entry): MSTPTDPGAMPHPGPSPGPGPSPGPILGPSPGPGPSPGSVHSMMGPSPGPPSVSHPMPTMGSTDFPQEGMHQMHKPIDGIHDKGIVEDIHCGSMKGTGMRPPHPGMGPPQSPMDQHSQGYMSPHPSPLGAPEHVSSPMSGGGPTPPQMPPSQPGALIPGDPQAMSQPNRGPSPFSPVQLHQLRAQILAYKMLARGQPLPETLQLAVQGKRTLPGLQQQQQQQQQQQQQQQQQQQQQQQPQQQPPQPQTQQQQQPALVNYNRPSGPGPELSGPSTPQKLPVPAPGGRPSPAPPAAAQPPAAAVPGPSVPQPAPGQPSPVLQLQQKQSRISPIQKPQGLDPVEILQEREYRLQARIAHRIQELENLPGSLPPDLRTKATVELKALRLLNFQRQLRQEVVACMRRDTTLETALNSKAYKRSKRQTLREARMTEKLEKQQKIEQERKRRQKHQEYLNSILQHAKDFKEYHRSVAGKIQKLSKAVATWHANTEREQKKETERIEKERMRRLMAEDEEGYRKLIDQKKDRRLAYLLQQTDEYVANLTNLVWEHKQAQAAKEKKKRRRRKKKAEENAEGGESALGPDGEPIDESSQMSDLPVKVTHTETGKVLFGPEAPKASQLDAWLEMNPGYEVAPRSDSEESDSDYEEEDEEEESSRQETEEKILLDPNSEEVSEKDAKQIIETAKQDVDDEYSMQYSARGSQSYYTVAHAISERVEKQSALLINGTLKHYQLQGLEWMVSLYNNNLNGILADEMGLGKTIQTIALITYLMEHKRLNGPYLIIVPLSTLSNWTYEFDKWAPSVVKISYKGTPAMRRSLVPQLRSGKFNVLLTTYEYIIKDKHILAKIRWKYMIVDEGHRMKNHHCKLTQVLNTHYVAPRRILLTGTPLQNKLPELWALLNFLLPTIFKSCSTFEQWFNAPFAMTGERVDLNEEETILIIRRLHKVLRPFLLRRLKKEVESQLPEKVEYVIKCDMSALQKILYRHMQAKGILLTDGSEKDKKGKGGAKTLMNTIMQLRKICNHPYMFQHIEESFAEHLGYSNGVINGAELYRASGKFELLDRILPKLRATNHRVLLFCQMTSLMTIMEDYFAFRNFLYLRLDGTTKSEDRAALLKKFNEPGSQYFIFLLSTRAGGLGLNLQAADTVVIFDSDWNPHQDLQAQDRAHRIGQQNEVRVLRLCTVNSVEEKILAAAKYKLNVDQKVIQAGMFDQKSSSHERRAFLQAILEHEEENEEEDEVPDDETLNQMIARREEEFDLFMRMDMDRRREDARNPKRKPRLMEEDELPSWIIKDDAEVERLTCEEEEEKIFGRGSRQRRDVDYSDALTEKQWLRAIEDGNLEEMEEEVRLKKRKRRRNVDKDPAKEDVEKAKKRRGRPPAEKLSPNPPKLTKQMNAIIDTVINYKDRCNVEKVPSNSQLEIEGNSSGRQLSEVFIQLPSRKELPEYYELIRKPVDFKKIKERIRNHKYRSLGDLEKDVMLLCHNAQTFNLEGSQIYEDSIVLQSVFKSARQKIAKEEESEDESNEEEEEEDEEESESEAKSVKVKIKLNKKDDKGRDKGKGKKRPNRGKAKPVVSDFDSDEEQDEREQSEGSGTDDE
Assay text: ATPase catalytic activity assay (ADP-Glo), BRM
Particulars: BRM ATPase: IC50 (uM), 30 nM BRM, 400 μM ATP
Entries and their IC50 values follow.
Measurement type: IC50

Molecule	Measured value
COc1cc(C2CCC2)ccc1-c1ccc2cnc(CNC(=O)c3ccc4c(c3)[C@](C)(C#N)COC4)cc2n1 [Compound 127]	< 0.1 µM
CN(C)c1cccc([C@H]2C[C@H](c3ccnc(CNC(=O)c4ccc5c(c4)[C@](C)(C#N)COC5)c3)C2)n1 [Compound 76]	0.1 to 0.5 µM
Cc1nn(-c2ccc3cnc(CNC(=O)c4ccc5c(c4)[C@](C)(C#N)COC5)cc3n2)cc1F [Compound 433]	0.1 to 0.5 µM
COc1c(-c2ccc3cnc(CNC(=O)c4ccc5c(c4)[C@](C)(C#N)COC5)cc3n2)ccc2cnn(C)c12 [Compound 491]	0.1 to 0.5 µM
C[C@@]1(C#N)COCc2ccc(C(=O)NCc3cc(N4CCC(F)(c5ccccc5)C4)ccn3)cc21 (stereo partly shown) [Compound 60]	0.1 to 0.5 µM
Cn1ccc2c(-c3ccc4cnc(CNC(=O)c5ccc6c(c5)[C@](C)(C#N)COC6)cc4n3)cc(F)cc21 [Compound 171]	< 0.1 µM
Cn1c(C2CC2)cc2c(-c3ccc4cnc(CNC(=O)c5ccc6c(c5)[C@](C)(C#N)COC6)cc4n3)cccc21 [Compound 135]	< 0.1 µM

Value source: patent US12441726B2
